Provenance of the data: the supplement of paper PMC9112550

Test system: Escherichia coli TOP10
procedure text: shrunken log2 fold change of peptide-encoding DNA abundance (4.5 h post-induction vs induction); higher = less antimicrobial activity (less host growth inhibition)
cond: time post-induction: 4.5 h; library: site-saturation at positions 5, 18, 19, 20
Note to self: class labels come from recorded shrunken log2 fold change, ranges listed here: low = under -0.05, mid = from -0.05 up to 0.1, high = 0.1 and over

Query: Place this sequence in its band: RRIRRRPPRLPRPRPRPEKTPRP
Reply: mid

Query: And then RRIRARPPRLPRPRPRPVQDPRP , what is it?
Reply: low

Query: And then RRIRQRPPRLPRPRPRPGFCPRP , what is it?
Reply: high

Query: And then RRIRHRPPRLPRPRPRPSKKPRP , what is it?
Reply: mid

Query: And then RRIRKRPPRLPRPRPRPILRPRP , what is it?
Reply: mid

Query: And then RRIRRRPPRLPRPRPRPQMKPRP , what is it?
Reply: low

Query: And then RRIRLRPPRLPRPRPRPWSLPRP , what is it?
Reply: low

Query: And then RRIRYRPPRLPRPRPRPAVAPRP , what is it?
Reply: high

Query: And then RRIRMRPPRLPRPRPRPLQAPRP , what is it?
Reply: high

Query: And then RRIRTRPPRLPRPRPRPANEPRP , what is it?
Reply: low

Query: And then RRIRFRPPRLPRPRPRPLKVPRP , what is it?
Reply: low

Query: And then RRIRTRPPRLPRPRPRPKIWPRP , what is it?
Reply: high

Query: And then RRIRKRPPRLPRPRPRPLCDPRP , what is it?
Reply: high

Query: And then RRIRHRPPRLPRPRPRPTPDPRP , what is it?
Reply: high

Query: And then RRIRTRPPRLPRPRPRPKDMPRP , what is it?
Reply: mid

* * *

System: Escherichia coli TOP10;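 note: peptides expressed intracellularly from a pBAD plasmid library in pooled LB shake-flask culture, induced with 0.3% L-arabinose, DNA abundance read by NGS, three biological replicates, DESeq2 with apeglm shrinkage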
procedure text: shrunken log2 fold change of peptide-encoding DNA abundance (4.5 h post-induction vs induction); higher = less antimicrobial activity (less host growth inhibition)
cond: time post-induction: 4.5 h; library: site-saturation at positions 5, 18, 19, 20
# binarize shrunken log2 fold change: threshold -0.02 inclusive, high side Condition met, low side Condition not met

Query: Exam item: decide whether the reported shrunken log2 fold change for RRIRSRPPRLPRPRPRPLKTPRP is at least -0.02.
Reply: Condition met

Query: And then RRIRCRPPRLPRPRPRPHSGPRP , what is it?
Reply: Condition met

Query: And then RRIRRRPPRLPRPRPRPILNPRP , what is it?
Reply: Condition met

Query: And then RRIRFRPPRLPRPRPRPREMPRP , what is it?
Reply: Condition met

Query: And then RRIRHRPPRLPRPRPRPCMLPRP , what is it?
Reply: Condition not met

Query: And then RRIRYRPPRLPRPRPRPNYKPRP , what is it?
Reply: Condition not met

Query: And then RRIRHRPPRLPRPRPRPNDDPRP , what is it?
Reply: Condition not met

Query: And then RRIRARPPRLPRPRPRPFRKPRP , what is it?
Reply: Condition met

Query: And then RRIRCRPPRLPRPRPRPMHPPRP , what is it?
Reply: Condition met

Query: And then RRIRHRPPRLPRPRPRPSWNPRP , what is it?
Reply: Condition not met

Query: And then RRIRRRPPRLPRPRPRPSNWPRP , what is it?
Reply: Condition not met

Query: And then RRIRCRPPRLPRPRPRPYHGPRP , what is it?
Reply: Condition not met

Query: And then RRIRIRPPRLPRPRPRPTYDPRP , what is it?
Reply: Condition not met

Query: And then RRIRPRPPRLPRPRPRPHNGPRP , what is it?
Reply: Condition not met

Query: And then RRIRLRPPRLPRPRPRPDCAPRP , what is it?
Reply: Condition met

Query: And then RRIRRRPPRLPRPRPRPNMHPRP , what is it?
Reply: Condition met

Query: And then RRIRDRPPRLPRPRPRPSSLPRP , what is it?
Reply: Condition met

Query: And then RRIRTRPPRLPRPRPRPRPEPRP , what is it?
Reply: Condition met

Query: And then RRIRVRPPRLPRPRPRPPHYPRP , what is it?
Reply: Condition met

Query: And then RRIRCRPPRLPRPRPRPTHNPRP , what is it?
Reply: Condition met

Query: And then RRIRIRPPRLPRPRPRPPSVPRP , what is it?
Reply: Condition not met

Query: And then RRIRYRPPRLPRPRPRPYAFPRP , what is it?
Reply: Condition met

Query: And then RRIRSRPPRLPRPRPRPIESPRP , what is it?
Reply: Condition not met

Query: And then RRIRDRPPRLPRPRPRPCYYPRP , what is it?
Reply: Condition met

Query: And then RRIRGRPPRLPRPRPRPTQGPRP , what is it?
Reply: Condition met

Query: And then RRIRGRPPRLPRPRPRPNKIPRP , what is it?
Reply: Condition met

Query: And then RRIRKRPPRLPRPRPRPWGDPRP , what is it?
Reply: Condition met

Query: And then RRIRTRPPRLPRPRPRPLETPRP , what is it?
Reply: Condition met
